Test system: HCT116 colorectal cancer cells
Starred links: 1 amine or outer side, 2 acyl side, 3 side chain; linkers in the order of their positions; H or OH if unused. Positions of bridges follow the written chain, without caps; N, C: chain ends. Non-standard residues stand in square brackets, D forms with d. Residues, ends and D or L forms follow the SMILES beside them. ξ: configuration not given here. *: point of attachment. Phe(F5) = N[C@@H](Cc1c(F)c(F)c(F)c(F)c1F)C(=O)O; 1Nal = N[C@@H](Cc1cccc2ccccc12)C(=O)O; 2Nal = N[C@@H](Cc1ccc2ccccc2c1)C(=O)O; mXylylene = c1cc(C[*:1])cc(C[*:2])c1; oXylylene = c1ccc(C[*:2])c(C[*:1])c1; Cha = N[C@@H](CC1CCCCC1)C(=O)O; Nicotinoyl = O=C(c1cccnc1)*; ξDisc = O=C(O)C1NCc2ccccc21; N(CH2CH2)2NH = C1CN(*)CCN1
So I've got a bunch of compounds here, and I need their pEC50 values.
Give only the number. pEC50 is defined as minus log10 of concentration in molar units.

I looked up CC(C)C[C@H](NC(=O)[C@H](CCCNC(=N)N)NC(=O)[C@@H]1CSCc2ccccc2CSC[C@H](NC(=O)[C@H](Cc2ccccc2)NC(=O)[C@@H](N)CCCNC(=N)N)C(=O)N[C@@H](CCCNC(=N)N)C(=O)N[C@@H](Cc2ccc(O)cc2)C(=O)N[C@@H](Cc2c[nH]c3ccccc23)C(=O)N1)C(=O)N[C@@H](CCCNC(=N)N)C(=O)N1CCC[C@H]1C(N)=O [ArB15Fo] (H-RFCRYWCRLRP-NH2; linker 3-7 via oXylylene; N-terminus assumed) and its pEC50 for HCT116 colorectal cancer cells was 4.30

The reported pEC50 value, HCT116 colorectal cancer cells, for CC(C)C[C@H](NC(=O)[C@H](CCCNC(=N)N)NC(=O)[C@@H]1CSCc2ccccc2CSC[C@H](NC(=O)[C@H](Cc2ccccc2)NC(=O)[C@H](CCCNC(=N)N)NC(=O)c2cccnc2)C(=O)N[C@@H](CCCNC(=N)N)C(=O)N[C@@H](Cc2ccc(O)cc2)C(=O)N[C@@H](Cc2c[nH]c3ccccc23)C(=O)N1)C(=O)N[C@@H](CCCNC(=N)N)C(=O)N1CCC[C@H]1C(N)=O [ArB15FNico] (Nicotinoyl-RFCRYWCRLRP-NH2; linker 3-7 via oXylylene) reads 3.72

pEC50 on HCT116 colorectal cancer cells for N=C(N)NCCC[C@@H](N)C(=O)N[C@@H](CCCNC(=N)N)C(=O)N[C@@H](Cc1ccc2ccccc2c1)C(=O)N[C@@H](CCCNC(=N)N)C(=O)N[C@@H]1CSCc2ccccc2CSC[C@@H](C(=O)N[C@H](CCCNC(=N)N)C(=O)N[C@@H](CC2CCCCC2)C(=O)N[C@@H](CCCNC(=N)N)C(=O)N2Cc3ccccc3C2C(N)=O)NC(=O)[C@H](Cc2cccc3ccccc23)NC(=O)[C@H](Cc2ccc(O)cc2)NC1=O (stereo partly drawn) [ArB14Bo] (H-[dR]R[2Nal]R[dC]Y[1Nal]C[dR][Cha]R[ξDisc]-NH2; linker 5-8 via oXylylene; N-terminus assumed) is 4.97

Entry CC(C)C[C@H](NC(=O)[C@H](CCCNC(=N)N)NC(=O)[C@@H]1CSCc2cccc(c2)CSC[C@H](NC(=O)[C@H](Cc2ccccc2)NC(=O)[C@H](CCCNC(=N)N)NC(=O)c2cccnc2)C(=O)N[C@@H](CCCNC(=N)N)C(=O)N[C@@H](Cc2ccc(O)cc2)C(=O)N[C@@H](Cc2c[nH]c3ccccc23)C(=O)N1)C(=O)N[C@@H](CCCNC(=N)N)C(=O)N1CCC[C@H]1C(N)=O [ArB15GNicm] (Nicotinoyl-RFCRYWCRLRP-NH2; linker 3-7 via mXylylene) ; assay system HCT116 colorectal cancer cells; pEC50 recorded at 3.90

pEC50 on HCT116 colorectal cancer cells for C[C@H](NC(=O)[C@H](Cc1c(F)c(F)c(F)c(F)c1F)NC(=O)[C@H](CO)NC(=O)[C@@H](N)[C@@H](C)O)C(=O)N[C@@H]1CSCc2ccccc2CSC[C@@H](C(=O)N[C@H](C)C(=O)N[C@@H](CC2CCCCC2)C(=O)N[C@@H](CO)C(=O)N2CCNCC2)NC(=O)[C@H](Cc2cccc3ccccc23)NC(=O)[C@H](Cc2ccc(O)cc2)NC1=O [ArB14Ao] (H-TS[Phe(F5)]A[dC]Y[1Nal]C[dA][Cha]S-{N(CH2CH2)2NH}; linker 5-8 via oXylylene; N-terminus assumed) is 4.08

Form: item CC(C)C[C@H](NC(=O)[C@H](CCCNC(=N)N)NC(=O)[C@H](CS)NC(=O)[C@H](Cc1c[nH]c2ccccc12)NC(=O)[C@H](Cc1ccc(O)cc1)NC(=O)[C@H](CCCNC(=N)N)NC(=O)[C@H](CS)NC(=O)[C@H](Cc1ccccc1)NC(=O)[C@H](CCCNC(=N)N)NC(=O)c1cccnc1)C(=O)N[C@@H](CCCNC(=N)N)C(=O)N1CCC[C@H]1C(N)=O [ArB15F/GNicr] (Nicotinoyl-RFCRYWCRLRP-NH2) ; test system HCT116 colorectal cancer cells; pEC50: 4.19

Item: C[C@@H](O)[C@H](N)C(=O)N[C@@H](CO)C(=O)N[C@@H](Cc1ccccc1)C(=O)N[C@@H](CCCNC(=N)N)C(=O)N[C@@H](CCCNC(=N)N)C(=O)N[C@@H](Cc1ccc(O)cc1)C(=O)N[C@H]1CSCc2cccc(c2)CSC[C@@H](C(=O)N[C@@H](CO)C(=O)N2CCC[C@H]2C(N)=O)NC(=O)[C@H](CCCNC(=N)N)NC(=O)[C@H](CCCNC(=N)N)NC1=O [ArB14Dm] | System: HCT116 colorectal cancer cells | pEC50: 3.93
